Biological target: UniProt P41597
Sequence (P41597 whole entry): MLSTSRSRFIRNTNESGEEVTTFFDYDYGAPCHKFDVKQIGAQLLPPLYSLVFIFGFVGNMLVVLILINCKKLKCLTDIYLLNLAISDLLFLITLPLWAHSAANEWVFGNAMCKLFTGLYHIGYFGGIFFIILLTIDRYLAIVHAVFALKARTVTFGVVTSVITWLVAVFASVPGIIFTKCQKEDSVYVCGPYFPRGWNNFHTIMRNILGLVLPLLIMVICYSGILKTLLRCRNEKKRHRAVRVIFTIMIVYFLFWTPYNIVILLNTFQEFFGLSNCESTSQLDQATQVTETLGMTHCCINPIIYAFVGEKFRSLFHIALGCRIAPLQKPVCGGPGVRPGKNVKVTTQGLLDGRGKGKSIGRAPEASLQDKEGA
Test: MCP-1 Receptor Binding Assay in THP-1 Cells (125I-MCP-1 displacement)
Conditions: 0.5 nM 125I labeled MCP-1, 2 hours at 30° C., read-out: CCR2 Binding, Inhibition of MCP-1 Binding IC50
Parameter measured: pIC50
Lab note — pIC50 values are minus log10 of concentrations in M.

Query: pIC50; subject: COc1cccn(C2CCC(N3CC(NC(=O)CNC(=O)c4cccc(C(F)(F)F)c4)C3)CC2)c1=O (single isomer, unassigned) [Example 13a]
7.00

Requested read-out: pIC50. Entry: O=C(CNC(=O)c1cccc(C(F)(F)F)c1)NC1CN(C2CCC(n3cc(Br)cnc3=O)CC2)C1 (centres unmarked)
5.66

// returns reported pIC50 for input O=C(CNC(=O)c1cccc(C(F)(F)F)c1)NC1CN(C2CCC3(CC2)NC(=O)c2ccccc23)C1 (single isomer, unassigned) [Example 39a]
5.82

Fill in: pIC50 of O=C(CNC(=O)c1cccc(C(F)(F)F)c1)NC1CN(C2CCC(Oc3nsc4ccccc34)CC2)C1 (single isomer, unassigned) [Example 34a] is ___
6.54

Data request, read-out pIC50, for Cc1ccc(OC2CCC(N3CC(NC(=O)CNC(=O)c4cccc(C(F)(F)F)c4)C3)CC2)nc1 (single isomer, unassigned) [Example 12a]
6.09

Entry under review: O=C(CNC(=O)c1cccc(C(F)(F)F)c1)NC1CN(C2CCC(n3cc(Cl)ccc3=O)CC2)C1 (single isomer, unassigned) [Example 22a] . Reported pIC50?
5.96

What value of pIC50 has been reported for the following compound? C#Cc1ccc(=O)n(C2CCC(N3CC(NC(=O)CNC(=O)c4cccc(C(F)(F)F)c4)C3)CC2)c1 (centres unmarked)
5.80

What pIC50 value was documented for this compound, O=C(CNC(=O)c1cccc(C(F)(F)F)c1)NC1CN(C2CCC(n3ccnc3)CC2)C1 (single isomer, unassigned) [Example 31a] ?
6.47

For the compound Cc1ccn(C2CCC(N3CC(NC(=O)CNC(=O)c4cccc(C(F)(F)F)c4)C3)CC2)c(=O)c1 (centres unmarked) , what pIC50 is on record?
6.96

# input compound: O=C(CNC(=O)c1cccc(C(F)(F)F)c1)NC1CN(C2CCC(n3cc(C(F)(F)F)ccc3=O)CC2)C1 (single isomer, unassigned) [Example 21a] ; wanted: its pIC50
5.19

Can you look up the measured pIC50 of C#Cc1cnn(C2CCC(N3CC(NC(=O)CNC(=O)c4cccc(C(F)(F)F)c4)C3)CC2)c1 (single isomer, unassigned) [Example 30a] for me?
7.06

Bench note: what pIC50 did O=C(CNC(=O)c1cccc(C(F)(F)F)c1)NC1CN(C2CCC(n3cc(I)cn3)CC2)C1 (centres unmarked) show?
6.96

Give its pIC50 value. Item: COc1cccnc1OC1CCC(N2CC(NC(=O)CNC(=O)c3cccc(C(F)(F)F)c3)C2)CC1 (centres unmarked)
6.55

Find the recorded pIC50 belonging to Cc1ccc(C)n1C1CCC(N2CC(NC(=O)CNC(=O)c3cccc(C(F)(F)F)c3)C2)CC1 (centres unmarked) and report it.
5.05

Dear colleague, I am looking for the recorded pIC50 of the following compound: O=C(CNC(=O)c1cccc(C(F)(F)F)c1)NC1CN(C2CCC(n3ccc(=O)cc3)CC2)C1 (centres unmarked)
5.15

Recorded pIC50 of C[Si](C)(C)C#Cc1cnn(C2CCC(N3CC(NC(=O)CNC(=O)c4cccc(C(F)(F)F)c4)C3)CC2)c1 (single isomer, unassigned) [Example 29a] , please.
7.68

Give its pIC50 value. Item: Cc1ccc(=O)n(C2CCC(N3CC(NC(=O)CNC(=O)c4cccc(C(F)(F)F)c4)C3)CC2)c1 (centres unmarked)
6.55

Entry O=C(CNC(=O)c1cccc(C(F)(F)F)c1)NC1CN(C2CCC(Oc3noc4ccccc34)CC2)C1 (single isomer, unassigned) [Example 25a] has what pIC50?
6.47

For the compound O=C(CNC(=O)c1cccc(C(F)(F)F)c1)NC1CN(C2CCC(Oc3ccncn3)CC2)C1 (single isomer, unassigned) , what pIC50 is on record?
5.57

If you can, please state the reported pIC50 value of O=C(CNC(=O)c1cccc(C(F)(F)F)c1)NC1CN(C2CCC(Oc3ncc(Br)cn3)CC2)C1 (single isomer, unassigned) .
4.62

What value of measured pIC50 is listed for O=C(CNC(=O)c1cccc(C(F)(F)F)c1)NC1CN(C2CCC(N3C(=O)c4ccccc4C3=O)CC2)C1 (single isomer, unassigned) [Example 24a] ?
6.17

What does the record list as pIC50 for Cc1ccnc(OC2CCC(N3CC(NC(=O)CNC(=O)c4cccc(C(F)(F)F)c4)C3)CC2)c1 (centres unmarked) ?
7.18

Entry O=C(CNC(=O)c1cccc(C(F)(F)F)c1)NC1CN(C2CCC3(CC2)OC(=O)Nc2ccccc23)C1 (single isomer, unassigned) [Example 40a] : reported pIC50 = ?
5.66

Given the compound Cc1cccn(C2CCC(N3CC(NC(=O)CNC(=O)c4cccc(C(F)(F)F)c4)C3)CC2)c1=O (single isomer, unassigned) [Example 18a] , what is its reported pIC50?
6.48

Fill blank: measured pIC50 of the compound O=C(CNC(=O)c1cccc(C(F)(F)F)c1)NC1CN(C2CCC(Oc3cccnn3)CC2)C1 (centres unmarked) is ____.
6.39

Which pIC50 is reported for this compound? N#Cc1ccc(=O)n(C2CCC(N3CC(NC(=O)CNC(=O)c4cccc(C(F)(F)F)c4)C3)CC2)c1 (centres unmarked)
6.00
